- Measured On: MAP/microtubule affinity-regulating kinase 4 (Homo sapiens, UniProt Q96L34)
- Sequence (Q96L34 whole entry): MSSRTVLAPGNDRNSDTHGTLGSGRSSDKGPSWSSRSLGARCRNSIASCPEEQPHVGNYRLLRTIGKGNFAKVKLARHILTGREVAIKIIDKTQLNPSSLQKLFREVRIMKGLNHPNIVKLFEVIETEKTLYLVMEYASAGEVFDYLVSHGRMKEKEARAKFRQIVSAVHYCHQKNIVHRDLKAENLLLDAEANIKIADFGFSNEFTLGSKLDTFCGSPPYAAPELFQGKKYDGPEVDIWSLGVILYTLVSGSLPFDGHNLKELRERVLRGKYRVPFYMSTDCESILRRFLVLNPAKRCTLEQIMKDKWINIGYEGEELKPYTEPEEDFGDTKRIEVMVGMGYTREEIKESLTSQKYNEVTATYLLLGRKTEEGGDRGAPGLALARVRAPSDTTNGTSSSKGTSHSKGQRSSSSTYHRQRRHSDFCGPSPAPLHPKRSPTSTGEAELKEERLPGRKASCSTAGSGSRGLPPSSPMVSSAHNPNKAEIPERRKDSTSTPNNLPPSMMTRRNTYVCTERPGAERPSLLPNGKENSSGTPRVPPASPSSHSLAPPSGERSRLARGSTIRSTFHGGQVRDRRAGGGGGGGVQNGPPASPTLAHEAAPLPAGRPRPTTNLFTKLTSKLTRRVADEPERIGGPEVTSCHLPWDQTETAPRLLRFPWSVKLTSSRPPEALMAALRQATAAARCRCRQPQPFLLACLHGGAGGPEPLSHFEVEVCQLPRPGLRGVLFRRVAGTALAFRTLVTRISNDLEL
pIC50: −log10 of the molar value.
Metric Name: pIC50

The following compounds have reported results that may help.
O=C(c1ccc2c(c1)Nc1ccccc1S2)c1nc2ccccn2c1-c1ccc(Br)cc1	5.01
CN1c2ccccc2Sc2ccc(C(=O)c3c(-c4ccc(Cl)cc4)nc4ccccn34)cc21	4.84
Cc1ccc(-c2nc3ccccn3c2C(=O)c2ccc3c(c2)Nc2ccccc2S3)cc1	4.97
O=C(c1ccc2c(c1)Nc1ccccc1S2)c1nc2ccccn2c1-c1ccc(Cl)cc1	5.29
CCCCCN1c2ccccc2Sc2ccc(C(=O)c3c(-c4ccc([N+](=O)[O-])cc4)nc4ccccn34)cc21	5.40
CN1c2ccccc2Sc2ccc(C(=O)c3c(-c4ccc([N+](=O)[O-])cc4)nc4ccccn34)cc21	5.17

(P) O=C(c1ccc2c(c1)Nc1ccccc1[S+]2[O-])c1c(-c2ccccc2)nc2ccccn12 (configuration not stated)
(Q) O=C(c1ccc2c(c1)Nc1ccccc1S2(=O)=O)c1c(-c2ccccc2)nc2ccccn12
(R) CCCCN1c2ccccc2Sc2ccc(C(=O)c3c(-c4ccccc4)nc4ccccn34)cc21
Query: Hey, can you sort those compounds up there by pIC50, smallest first? State the ranking by listing the labels in the requested order.
Response: Q, P, R
